Tested on: MDA-MB-231 breast cancer cell lines
assay.overview: Evaluation of inhibition on cell growth (MTS)
Type: cell-based
condition: Homo sapiens, MDA-MB-231, 120 hours
Counter-ions that a name gives are not always drawn.
Task for the reader: assign each of the following compounds its reported GI50.

Dear colleague, I am looking for the recorded GI50 of the following compound: C=CC(=O)N[C@@H](C)C(=O)N[C@H](C(=O)N1CCC[C@H]1C(=O)Nc1cc2c(Nc3ccc(F)c(Cl)c3F)ncnc2cc1OC)C(C)(C)C [Example 13, hydrochloride] ≥ 1000 nM

Now the same for CN[C@@H](C)C(=O)N[C@H](C(=O)N1CCC[C@H]1C(=O)Nc1cc2c(Nc3ccc(F)c(Cl)c3F)ncnc2cc1O[C@H]1CCOC1)C(C)(C)C [Example 14, hydrochloride] ≤ 100 nM

Let us now turn to CN[C@@H](C)C(=O)N[C@H](C(=O)N1CCC[C@H]1C(=O)Nc1cc2c(Nc3ccc(N4CCC(N5CCCCC5)CC4)cc3)ncnc2cc1OC)C(C)(C)C [Example 103, hydrochloride] ≤ 100 nM

Can you check CN[C@@H](C)C(=O)N[C@H](C(=O)N1CCC[C@H]1C(=O)Nc1cc2c(NC(=O)Nc3ccccc3F)ncnc2cc1OC)C(C)(C)C [Example 89, hydrochloride] next? ≤ 100 nM

Let us now turn to CN[C@@H](C)C(=O)N[C@H](C(=O)N1CCC[C@H]1C(=O)Nc1cc2c(Nc3ccccn3)ncnc2cc1OC)C(C)(C)C ≤ 100 nM

Moving on to the next compound: CN[C@@H](C)C(=O)N[C@H](C(=O)N1CCC[C@H]1C(=O)Nc1cc2c(Nc3ccc(NC(=O)c4ccccc4)cc3)ncnc2cc1OC)C(C)(C)C ≤ 100 nM
